All figures here come from the DeepSol protein solubility set.

- EXPERIMENT NOTES: soluble on expression in E. coli; label from the status in PepcDB or PDB records
MEASURED QUANTITY: soluble on expression in E. coli

>>> val("MSLNSESLGLLQEFLKTHKYKEFRDQAKNLRAPFILQAIVSTPTTVKYYTQGRLIKCCETDSTGNITTSYTYNDKGQLTTTLSVTEKNGQPINEVQTSRLYDPQGHCIFEVKTNPKTKTDFYRRARRIGIDGSIESDSLKYMDGRYTVSSYNKQGLLTETKEYNKNGEMEGYTVNKYDDKGRMTESQHQNMLFVNSPNQILSQKELYEYDKYGYLTRIVYQRIFGNSQKTSGCLTCLYDEYGNRIDGDSYYEYDNTGQWICRTSYDNPQQVERIQYIYKEGHHHHHH")
"not soluble"
>>> val("MNTLPDTHVREASGCPSPITIWQTLLTRLLDQHYGLTLNDTPFADERVIEQHIEAGISLCDAVNFLVEKYALVRTDQPGFSAGAPSQLINSIDILRARRATGLMTRDNYRTVNNITRGKHPEAKQ")
"not soluble"

---

- EXPERIMENT NOTES: soluble on expression in E. coli; label from the status in PepcDB or PDB records
MEASURED QUANTITY: soluble on expression in E. coli

>>> val("MGSDKIHHHHHHMFLSELYRYPVKSGQAQSLKASPVGLLGLQGDRRWMVVEEENGRFLTQRAWPQLGQIDASDDDSGQLLLQAPGQAPLRVPVPPADDALRGVTIWRDTLRVPDAGDAAAAWLSELLGKAVRLVHCPEQRARYLPNGYGLNSDRAAFPDGFPLLLIGQGSLDELNRRIGRPMSMRRFRPNLVVQGAEPFAEDGWKRIRIGSLVFRVLKPSVRCIFTTIDPVTGERSADREPMATLKTFREKEGDVLFGQNLAVDGSGWLEVGMEVEILE")
"not soluble"
>>> val("MDKVIFYSNIRNLIFKKCSIQFLIINDTVAHKEQVAMREMNQLVNTEDSAWPIIQNWLKDATNHTELLPVNKDLAETALYQLQVTTKSPMGALVYGSGGLLIDNGLEHHHHHH")
"not soluble"

---

- EXPERIMENT NOTES: soluble on expression in E. coli; label from the status in PepcDB or PDB records
MEASURED QUANTITY: soluble on expression in E. coli

>>> val("MGSDKIHHHHHHMKRKRIDGMNIEIITATIDMLEEIVAIQTAAFSEREPMTMSLNFTKEEMYDYFLKIIPESINSGLTMAAVDEDKGAIAAVVICFDAFAVFPNMEWTQKEIDGISKTNIFFEELEKPLNTNPAFKPEKCVRLMYVSTDENYLRRGIARKLGESMINRAIDLGYELMIADATNINSAGMFEKLGFWQEKVLPYKLVEKDGLKAFGNVEGECILYSRYLQENCFS")
"not soluble"
>>> val("MQIYLSTLTELDYDKSLNSIEESFDDNPETSWQARAKVKHLRKSPCYNFELEVIAKNENNDVVGHVLLIEVEINSDDKTYYGLAIASLSVHPELRGQKLGRGLVQAVEERAKAQEYSTVVVDHCFDYFEKLGYQNAAEHDIKLEFGDAPLLVKYLWDNLTDAPHGIVKFPEHFY")
"not soluble"

---

- EXPERIMENT NOTES: soluble on expression in E. coli; label from the status in PepcDB or PDB records
MEASURED QUANTITY: soluble on expression in E. coli

>>> val("MKRVFGILVCFMLLLSGTSVSFAQSEKTKQDKTEETTPKLAEQASSAIVIEQDTGKVLFDKNPNEKLPPASMTKIMTMLLIMEQVEKGKLKLTDKVRASEHAASMGGSQIFLEPGEEMTVNEMLKGIAIASGNDASVAVAEHIAGSEEGFVNMMNKKAKDLGLKNTHFQNPTGLPAKDHYSTANDMAIMAKELMKYPLIRKYTGKYEDYLREDTDKKFWLVNTNKLVRFYPGVDGVKTGFTTEAKYCLTASAEKNGMRVISVVMGAPTSKERNNQVTKLLDYAFGQYMTKKLYTRGEKIKTVQVGKGKKEKVDLVASDNVSLLMKKGENMDKVKQEVIAEKKVKAPIKKGDALGTLVIKKDKDVLLKQTIVAKEDVAAASWWELFKRSFGMFSTSK")
"not soluble"
>>> val("MPIVMARDLEETASSSEDEEVISQEDHPCIMWTGGCRRIPVLVFHADAILTKDNNIRVIGERYHLSYKIVRTDSRLVRSILTAHGFHEVHPSSTDYNLMWTGSHLKPFLLRTLSEAQKVNHFPRSYELTRKDRLYKNIIRMQHTHGFKAFHILPQTFLLPAEYAEFCNSYSKDRGPWIVKPVASSRGRGVYLINNPNQISLEDNILVSRYINNPLLIDDFKFDMRLYVLVTSYDPLVIYLYEEGLARKCNWKMGNTMDKRRLPIYVQVL")
"not soluble"
